Where do the numbers come from? From the supplement of paper PMC9112550.

Consider the following sequences; for each one, report its shrunken log2 fold change.
tested on: Escherichia coli TOP10; test: shrunken log2 fold change of peptide-encoding DNA abundance (4.5 h post-induction vs induction); higher = less antimicrobial activity (less host growth inhibition); details: time post-induction: 4.5 h; library: site-saturation at positions 5, 18, 19, 20
// print number alone

Query: Lab note: record shrunken log2 fold change of RRIRFRPPRLPRPRPRPNWGPRP tested on Escherichia coli TOP10.
Response: 0.0529

Query: Lab note: record shrunken log2 fold change of RRIRARPPRLPRPRPRPYCTPRP tested on Escherichia coli TOP10.
Response: -0.0621

Query: Lab note: record shrunken log2 fold change of RRIRLRPPRLPRPRPRPDCWPRP tested on Escherichia coli TOP10.
Response: 0.362

Query: Lab note: record shrunken log2 fold change of RRIRYRPPRLPRPRPRPDGSPRP tested on Escherichia coli TOP10.
Response: -0.317

Query: Lab note: record shrunken log2 fold change of RRIRPRPPRLPRPRPRPSYCPRP tested on Escherichia coli TOP10.
Response: -0.387

Query: Lab note: record shrunken log2 fold change of RRIRGRPPRLPRPRPRPYMGPRP tested on Escherichia coli TOP10.
Response: -0.00228

Query: Lab note: record shrunken log2 fold change of RRIRVRPPRLPRPRPRPKYQPRP tested on Escherichia coli TOP10.
Response: -0.876

Query: Lab note: record shrunken log2 fold change of RRIRGRPPRLPRPRPRPSDYPRP tested on Escherichia coli TOP10.
Response: 0.0378

Query: Lab note: record shrunken log2 fold change of RRIRFRPPRLPRPRPRPQFCPRP tested on Escherichia coli TOP10.
Response: -0.0625

Query: Lab note: record shrunken log2 fold change of RRIRQRPPRLPRPRPRPPWCPRP tested on Escherichia coli TOP10.
Response: 0.0207

Query: Lab note: record shrunken log2 fold change of RRIRIRPPRLPRPRPRPDEWPRP tested on Escherichia coli TOP10.
Response: -0.0975

Query: Lab note: record shrunken log2 fold change of RRIRQRPPRLPRPRPRPNADPRP tested on Escherichia coli TOP10.
Response: 0.00101

Query: Lab note: record shrunken log2 fold change of RRIRFRPPRLPRPRPRPHKMPRP tested on Escherichia coli TOP10.
Response: -0.154

Query: Lab note: record shrunken log2 fold change of RRIRKRPPRLPRPRPRPPTMPRP tested on Escherichia coli TOP10.
Response: 0.412

Query: Lab note: record shrunken log2 fold change of RRIRSRPPRLPRPRPRPTRRPRP tested on Escherichia coli TOP10.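 Also: peptides expressed intracellularly from a pBAD plasmid library in pooled LB shake-flask culture, induced with 0.3% L-arabinose, DNA abundance read by NGS, three biological replicates, DESeq2 with apeglm shrinkage.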
Response: 0.109
